Biological target: p110 δ (RAJI cells) (Homo sapiens (Human), UniProt O00329)
Sequence (O00329 whole entry): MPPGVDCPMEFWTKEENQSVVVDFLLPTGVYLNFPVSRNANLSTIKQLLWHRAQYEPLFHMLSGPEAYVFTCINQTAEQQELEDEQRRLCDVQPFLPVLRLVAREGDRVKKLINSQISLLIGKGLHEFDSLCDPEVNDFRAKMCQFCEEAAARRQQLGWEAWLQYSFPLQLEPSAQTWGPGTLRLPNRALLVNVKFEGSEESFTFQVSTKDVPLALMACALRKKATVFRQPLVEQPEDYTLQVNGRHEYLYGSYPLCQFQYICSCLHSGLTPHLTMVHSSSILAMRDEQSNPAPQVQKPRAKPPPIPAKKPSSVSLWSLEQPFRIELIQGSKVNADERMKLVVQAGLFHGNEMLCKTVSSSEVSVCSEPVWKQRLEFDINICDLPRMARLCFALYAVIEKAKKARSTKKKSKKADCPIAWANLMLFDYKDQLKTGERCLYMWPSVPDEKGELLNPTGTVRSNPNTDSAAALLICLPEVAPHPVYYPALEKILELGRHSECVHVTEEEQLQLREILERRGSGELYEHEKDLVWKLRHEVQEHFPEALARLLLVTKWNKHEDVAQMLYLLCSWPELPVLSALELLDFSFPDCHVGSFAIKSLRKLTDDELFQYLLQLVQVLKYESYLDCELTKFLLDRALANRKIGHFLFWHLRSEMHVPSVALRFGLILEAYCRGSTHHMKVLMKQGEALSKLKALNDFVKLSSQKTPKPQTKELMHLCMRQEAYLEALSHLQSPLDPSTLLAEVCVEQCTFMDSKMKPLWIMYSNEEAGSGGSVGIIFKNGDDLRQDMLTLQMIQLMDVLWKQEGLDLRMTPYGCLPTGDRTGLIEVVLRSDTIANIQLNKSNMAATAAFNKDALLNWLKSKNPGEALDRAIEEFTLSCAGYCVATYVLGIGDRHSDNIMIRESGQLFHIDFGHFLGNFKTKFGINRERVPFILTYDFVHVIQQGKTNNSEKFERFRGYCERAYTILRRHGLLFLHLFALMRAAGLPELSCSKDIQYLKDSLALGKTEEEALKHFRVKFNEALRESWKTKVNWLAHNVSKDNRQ
Sequence (P27986 whole entry partner): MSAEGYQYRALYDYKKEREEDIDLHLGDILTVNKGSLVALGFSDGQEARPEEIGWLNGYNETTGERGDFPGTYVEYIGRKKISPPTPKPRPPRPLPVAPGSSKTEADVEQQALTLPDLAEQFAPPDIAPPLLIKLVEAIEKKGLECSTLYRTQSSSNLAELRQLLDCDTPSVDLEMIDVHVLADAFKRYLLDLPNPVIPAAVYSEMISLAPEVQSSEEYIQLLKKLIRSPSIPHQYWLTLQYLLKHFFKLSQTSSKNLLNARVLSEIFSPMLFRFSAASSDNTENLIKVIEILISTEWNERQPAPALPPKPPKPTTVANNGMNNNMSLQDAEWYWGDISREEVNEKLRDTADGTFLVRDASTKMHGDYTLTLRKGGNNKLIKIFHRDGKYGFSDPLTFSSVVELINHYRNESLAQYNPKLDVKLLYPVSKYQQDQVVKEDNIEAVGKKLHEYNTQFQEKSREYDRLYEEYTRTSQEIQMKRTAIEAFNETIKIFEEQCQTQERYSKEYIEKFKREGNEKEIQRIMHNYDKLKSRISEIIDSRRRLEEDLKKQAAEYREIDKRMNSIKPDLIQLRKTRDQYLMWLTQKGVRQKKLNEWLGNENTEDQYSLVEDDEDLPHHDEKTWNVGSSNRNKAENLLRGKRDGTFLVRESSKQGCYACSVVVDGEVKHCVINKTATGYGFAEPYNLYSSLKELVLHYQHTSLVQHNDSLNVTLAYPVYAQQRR
Assay: PI3K-δ selective cellular assay: phospho-AKT in anti-human IgM stimulated RAJI cells
Details: serum-starved RAJI cells stimulated with anti-human IgM
pIC50: −log10 of the molar value.
property name: pIC50

Worked examples, 3 compounds total:
>  <compound>
C[C@H](NC(=O)c1c(N)nn2cccnc12)c1cc2cccc(Cl)c2c(=O)n1-c1cccc(NS(C)(=O)=O)c1

>  <result>
7.00 to 8.00

$$$$
>  <compound>
C[C@H](NC(=O)c1c(N)nn2cccnc12)c1cc2cccc(Cl)c2c(=O)n1-c1ccc(NS(C)(=O)=O)cc1

>  <result>
6.30 to 7.00

$$$$
>  <compound>
C[C@H](NC(=O)c1c(N)nn2cccnc12)c1cc2cccc(-c3cnn(CC#N)c3)c2c(=O)n1-c1ccccc1

>  <result>
6.30 to 7.00

$$$$

Q: Would you kindly share the measured pIC50 for "C[C@H](NC(=O)c1c(N)nn2cccnc12)c1cc2cccc(OCc3cnn(C)c3)c2c(=O)n1-c1ccccc1" ?
Ans: 5.00 to 6.00

Q: One more compound: "C[C@H](NC(=O)c1c(N)nn2cccnc12)c1cc2cccc(Cl)c2c(=O)n1CCc1nnnn1C"
Ans: 7.00 to 8.00

Q: One more compound: "Cc1ccc(-n2c([C@H](C)NC(=O)c3c(N)nn4cccnc34)cc3cccc(Cl)c3c2=O)cc1"
Ans: 7.00 to 8.00

====

Molecular target: UniProt:O00329
Assay: PI3-Kinase Promega ADP-Glo Max assay, δ isoform
Settings: 20 nM kinase, 3 mM ATP, 500 uM diC8-PtdInsP; read-out: Promega δ PI3K IC50
property name: IC50

>  <compound>
C[C@H](NC(=O)c1c(N)nn2cccnc12)c1cc2cccc(Cl)c2c(=O)n1-c1ccc(NS(C)(=O)=O)cc1 [Compound 81]

>  <system tested>
UniProt:O00329

>  <property name>
IC50

>  <result>
1 to 10 µM

$$$$
>  <compound>
CC(=O)Cc1cccc2nc([C@H](C)NC(=O)c3c(N)nn4cccnc34)n(-c3ccccc3)c(=O)c12 [Compound 89]

>  <system tested>
UniProt:O00329

>  <property name>
IC50

>  <result>
0.5 to 1 µM

$$$$
>  <compound>
C[C@H](NC(=O)c1c(N)nn2cccnc12)c1cc2cccc(Cl)c2c(=O)n1CCc1nnnn1C [Compound 55]

>  <system tested>
UniProt:O00329

>  <property name>
IC50

>  <result>
1 to 10 µM

$$$$

Q: Would you kindly share the measured IC50 for C[C@H](NC(=O)c1c(N)nn2cccnc12)c1cc2cccc(Cl)c2c(=O)n1CCc1ccccc1 [Compound 15] ?
Ans: 1 to 10 µM

Q: One more compound: C[C@H](NC(=O)c1nccnc1N)c1cc2cccc(C(F)(F)F)c2c(=O)n1-c1ccccc1 [Compound 52]
Ans: 0.5 to 1 µM

====

Target: human Class I PI3 kinase β (Homo sapiens (Human), UniProt P42338)
Sequence (P42338 whole entry, looked up, one chain of several, canonical isoform): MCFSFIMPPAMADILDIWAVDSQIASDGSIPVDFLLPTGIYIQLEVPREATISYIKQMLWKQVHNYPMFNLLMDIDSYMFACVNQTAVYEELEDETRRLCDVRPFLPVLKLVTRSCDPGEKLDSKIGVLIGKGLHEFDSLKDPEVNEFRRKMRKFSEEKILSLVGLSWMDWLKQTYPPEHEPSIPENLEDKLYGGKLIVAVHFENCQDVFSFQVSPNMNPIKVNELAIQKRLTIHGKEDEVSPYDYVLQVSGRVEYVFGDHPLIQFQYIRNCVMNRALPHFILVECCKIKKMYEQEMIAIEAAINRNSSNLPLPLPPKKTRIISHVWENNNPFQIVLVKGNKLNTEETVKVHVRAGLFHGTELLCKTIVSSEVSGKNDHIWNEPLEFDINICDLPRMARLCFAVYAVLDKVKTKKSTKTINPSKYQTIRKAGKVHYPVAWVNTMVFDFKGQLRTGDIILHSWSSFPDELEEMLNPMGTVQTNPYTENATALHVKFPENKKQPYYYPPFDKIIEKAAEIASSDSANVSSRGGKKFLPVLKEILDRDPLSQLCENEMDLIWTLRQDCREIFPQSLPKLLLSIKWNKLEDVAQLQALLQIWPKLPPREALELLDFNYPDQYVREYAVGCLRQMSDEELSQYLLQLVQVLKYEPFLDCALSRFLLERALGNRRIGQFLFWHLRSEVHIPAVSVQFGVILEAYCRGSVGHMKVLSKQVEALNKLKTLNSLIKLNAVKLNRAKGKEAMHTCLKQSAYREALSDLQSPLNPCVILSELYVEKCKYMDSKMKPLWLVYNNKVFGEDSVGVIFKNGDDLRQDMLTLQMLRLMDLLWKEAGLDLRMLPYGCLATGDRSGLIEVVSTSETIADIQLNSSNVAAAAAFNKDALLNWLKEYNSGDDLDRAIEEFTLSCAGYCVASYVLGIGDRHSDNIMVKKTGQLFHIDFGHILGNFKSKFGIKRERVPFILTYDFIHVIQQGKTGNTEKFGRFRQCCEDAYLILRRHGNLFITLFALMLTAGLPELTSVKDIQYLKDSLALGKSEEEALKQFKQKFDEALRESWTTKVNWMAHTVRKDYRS
Experiment: PI3-Kinase Promega ADP-Glo Max assay, β isoform
Conditions: 40 nM kinase, 3 mM ATP, 500 uM diC8-PtdInsP; read-out: Promega β PI3K IC50
pIC50: −log10 of the molar value.
# pIC50 values compiled below

Worked examples, 2 molecules total:
>  <molecule>
C[C@H](NC(=O)c1c(N)nn2cccnc12)c1cc2cccc(Cl)c2c(=O)n1CCS(=O)(=O)N(C)C [Compound 58]

>  <pIC50>
6.00 to 6.30

$$$$
>  <molecule>
C[C@H](NC(=O)c1c(N)nn2cccnc12)c1cc2cccc(Cl)c2c(=O)n1CCCS(C)(=O)=O [Compound 57]

>  <pIC50>
6.30 to 7.00

$$$$

Q: Would you kindly share the measured pIC50 for C[C@H](NC(=O)c1c(N)nn2cccnc12)c1cc2cccc(Cl)c2c(=O)n1-c1cccnc1 [Compound 76] ?
Ans: 6.00 to 6.30

Q: One more molecule: C[C@H](NC(=O)c1c(N)nn2cccnc12)c1cc2cccc(Cl)c2c(=O)n1CCNS(C)(=O)=O [Compound 13]
Ans: 6.00 to 6.30

Q: One more molecule: C[C@H](NC(=O)c1c(N)ncn2ccnc12)c1cc2cccc(Cl)c2c(=O)n1-c1ccccc1 [Compound 43]
Ans: 5.00 to 6.00

Q: One more molecule: C[C@H](NC(=O)c1c(N)nn2cccnc12)c1cc2cccc(Cl)c2c(=O)n1-c1ccccc1NS(C)(=O)=O [Compound 78]
Ans: 5.00 to 6.00

Q: One more molecule: C[C@H](NC(=O)c1c(N)nn2cccnc12)c1cc2cccc(Cl)c2c(=O)n1CCc1nnn(C)n1 [Compound 56]
Ans: 6.00 to 6.30

Q: One more molecule: C[C@H](NC(=O)c1c(N)nn2cccnc12)c1cc2cccc(Cl)c2c(=O)n1-c1cccc(O)c1 [Compound 69]
Ans: 7.00 to 8.00

Q: One more molecule: C[C@H](NC(=O)c1c(N)nn2cccnc12)c1cc2cccc(Cl)c2c(=O)n1CCc1c[nH]cn1 [Compound 21]
Ans: 6.30 to 7.00

Q: One more molecule: C[C@H](NC(=O)c1c(N)nn2cccnc12)c1cc2cccc(Cl)c2c(=O)n1-c1cccc(S(C)(=O)=O)c1 [Compound 77]
Ans: 6.00 to 6.30

Q: One more molecule: C[C@H](NC(=O)c1c(N)nn2cccnc12)c1cc2cccc(Cl)c2c(=O)n1C1CC(NS(C)(=O)=O)C1 (stereo partly drawn) [Compound 72]
Ans: 6.30 to 7.00

Q: One more molecule: C[C@H](NC(=O)c1c(N)nn2cccnc12)c1cc2cccc(Cl)c2c(=O)n1-c1ccccc1O [Compound 68]
Ans: 6.30 to 7.00

Q: One more molecule: C[C@H](NC(=O)c1c(N)nn2cccnc12)c1cc2cccc(Cl)c2c(=O)n1Cc1nnn[nH]1 [Compound 17]
Ans: 5.00 to 6.00
